// read-out Ki, gathered for Sodium-dependent dopamine transporter (Homo sapiens) from published studies

The compound `COc1c(F)ccc(F)c1C1CCN(c2ccn3c(CC4CC4)nnc3c2Cl)CC1` , tested on Sodium-dependent dopamine transporter (Homo sapiens), showed Ki of > 8.5 µM

Field Ki (system: Sodium-dependent dopamine transporter (Homo sapiens)) for entry `Cc1cc(OC2CCS(=O)(=O)CC2)cc(C)c1-c1cccc(COc2ccc(CCC(=O)O)c(F)c2)c1` = > 10 µM

Query COc1cc(CN(C)[C@H]2C3C4CC5C6C4CC3C6C52)cc(OC)c1OC (stereo partly drawn) on Sodium-dependent dopamine transporter (Homo sapiens); Ki returned: > 10 µM

* * *

pKi: −log10 of the molar value.
Field pKi: reported value for Sodium-dependent dopamine transporter (Homo sapiens); entries drawn from several documents.

Field pKi (entry `C[C@H]1CN(C(=O)c2ccc(-c3ccccc3C(F)(F)F)cc2)CCN1C(=O)c1ccc2cc[nH]c2c1` ) reads < 5.00

Entry COc1ccc(C2=NNC(=O)[C@@H]3CC=CC[C@H]23)cc1OC (relative stereo) ; pKi = < 4.00

Lab note: measured pKi of `CN(C)Cc1cc(OCCF)ccc1Sc1ccc(Br)cc1N` was < 6.00

So, `Fc1cccc(Cl)c1Oc1cccc(F)c1OC1CNC1` ? Its pKi was < 5.19

For this compound ( `Fc1ccccc1Oc1cccc(F)c1OC1CNC1` ), measured pKi is < 5.31

Reported pKi of `FCCOc1ccccc1S[C@@H](c1ccccc1)[C@@H]1CNCCO1` : < 5.00

So for `CN(C)Cc1ccccc1Sc1ccc(CCCO)cc1N` , the logged pKi turned out to be < 5.30

Recorded result, `CN(C)Cc1cc(OCCCO)ccc1Sc1ccc(Br)cc1N` , pKi: < 6.00

Documented pKi of `C[C@H]1CN(C(=O)c2ccc(-c3ccccc3Cl)cc2)CCN1C(=O)c1ccc2cc[nH]c2c1` : < 5.00

The reported value for `CN(C)Cc1ccccc1Sc1ccc(I)cc1CO` in terms of pKi is < 6.00

Notebook: `O=C(NNS(=O)(=O)c1ccccc1)c1cc(-c2ccnnc2)ccc1F` , pKi read as < 5.00

According to the records, this compound `COc1ccccc1S[C@@H](c1ccccc1)[C@@H]1CNCCO1` displays pKi of < 5.40

Value of measured pKi for the entry CCOC(=O)[C@@H]1CN(CCn2c(=O)[nH]c3ccccc3c2=O)CC[C@@H]1c1ccc(-c2ccccc2)cc1 (racemic) : < 5.00

What the record says about `CN(C)Cc1cc(OCCF)ccc1Sc1ccc(F)cc1N` : pKi is < 6.00

Entry CCOC(=O)[C@@H]1CN(CCn2c(=O)[nH]c3ccccc3c2=O)CC[C@@H]1c1ccc(C(F)(F)F)cc1 (racemic) ; pKi = < 5.00

// pKi value for COc1ccc(C2CCC(CN)O2)cc1 (configuration not stated) : < 5.00

pKi reading for `C[C@H]1CN(C(=O)c2ccc(-c3ccc(F)cc3)cc2)CCN1C(=O)c1ccc2cc[nH]c2c1` : < 5.00
